Recorded apparent Kd (screen) values for a group of binders are listed next.
Target: T1, TNFR1 (Homo sapiens, UniProt P19438)
T1 chain: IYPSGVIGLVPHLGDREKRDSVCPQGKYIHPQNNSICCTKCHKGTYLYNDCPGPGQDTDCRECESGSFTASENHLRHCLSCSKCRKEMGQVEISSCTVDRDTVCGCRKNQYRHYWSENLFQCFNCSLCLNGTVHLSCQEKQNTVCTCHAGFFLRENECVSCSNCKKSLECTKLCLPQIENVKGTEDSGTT
Assay: yeast display SC50
Give just the numeric value; nM need not be written.

binder: E36F (designed binder) MTLQELLREEALRRAEAEAFRYALELLAEKFPEQKFYLLDLAEEIESQIRSLSGVDVEDVRKFLDKEWAWVKELLAEHPAELAEVEAARAARLAELRAEVEAKVAA
measured: 0.539

binder: R13M (designed binder) MTLQELLREEALMRAEAEAFRYALELLAEKFPEQKEYLLDLAEEIESQIRSLSGVDVEDVRKFLDKEWAWVKELLAEHPAELAEVEAARAARLAELRAEVEAKVAA
measured: 0.304

binder: L93Q (designed binder) MTLQELLREEALRRAEAEAFRYALELLAEKFPEQKEYLLDLAEEIESQIRSLSGVDVEDVRKFLDKEWAWVKELLAEHPAELAEVEAARAARQAELRAEVEAKVAA
measured: 0.539

binder: F31K (designed binder) MTLQELLREEALRRAEAEAFRYALELLAEKKPEQKEYLLDLAEEIESQIRSLSGVDVEDVRKFLDKEWAWVKELLAEHPAELAEVEAARAARLAELRAEVEAKVAA
measured: 1.16

binder: E18P (designed binder) MTLQELLREEALRRAEAPAFRYALELLAEKFPEQKEYLLDLAEEIESQIRSLSGVDVEDVRKFLDKEWAWVKELLAEHPAELAEVEAARAARLAELRAEVEAKVAA
measured: 1.05

Task item: Please report the recorded apparent Kd (screen) for A91C (designed binder) MTLQELLREEALRRAEAEAFRYALELLAEKFPEQKEYLLDLAEEIESQIRSLSGVDVEDVRKFLDKEWAWVKELLAEHPAELAEVEAARACRLAELRAEVEAKVAA .
Reply: 0.593

Task item: Fill blank: measured apparent Kd (screen) of the binder E29Y (designed binder) MTLQELLREEALRRAEAEAFRYALELLAYKFPEQKEYLLDLAEEIESQIRSLSGVDVEDVRKFLDKEWAWVKELLAEHPAELAEVEAARAARLAELRAEVEAKVAA is ____.
Reply: 0.539

Task item: Request the reported apparent Kd (screen) associated with V71L (designed binder) MTLQELLREEALRRAEAEAFRYALELLAEKFPEQKEYLLDLAEEIESQIRSLSGVDVEDVRKFLDKEWAWLKELLAEHPAELAEVEAARAARLAELRAEVEAKVAA
Reply: 0.593
